conditions: buffer; pH 7.4; 200.0 µM
Classify as follows. Reported solubility kinetic greater than or equal to 10 µg/mL: Criterion met. Reported solubility kinetic below: Criterion not met.

CCC(NC(C)C)C(O)c1ccc(O)c(O)c1.CS(=O)(=O)O (centres undefined): Criterion met
CCCS(=O)(=O)Nc1cccc(-c2cn3c(n2)SCC3)c1: Criterion met
Cc1ccccc1-n1c(C)c(C#N)c(=O)c(-[n+]2ccccc2)c1[S-]: Criterion met
CCCOc1ccc(/C=N/NC(=O)CN2CCCCC2)cc1: Criterion met
Cc1ccc(C(=O)Nc2nc3ccccc3[nH]2)cc1: Criterion not met

Please indicate if the recorded solubility kinetic for `COc1ccc(CN2C(=O)CSCC2=O)cc1OC` meets or exceeds 10 µg/mL.
Criterion met

###

details: buffer; pH 7.4; 200.0 µM
Here the recorded solubility kinetic is given for each entry.
# number only, unit µg/mL dropped from output

Study these solved cases before continuing.
CC(NC(=O)COC(=O)c1cccs1)c1ccccc1 (configuration not stated): 11.9
COc1ccc(OCC(O)CNC(=O)c2sccc2Cl)cc1 (configuration not stated): 46

Shift focus to the following entry.
Endpoint output: solubility kinetic of `Cc1cc(C)cc(NC(=O)Nc2cnccn2)c1` . Value?
2.4

###

conditions: buffer; pH 7.4; 200.0 µM
Entries and their solubility kinetic
Numbers only; they are read as µg/mL.

// below: answered molecules
COC(=O)c1ccc(COC(=O)CNC(=O)C2CCCCC2)cc1: 16.3
Br.Fc1cccc(CNCC2CCCO2)c1 (stereo not given): 42.2

Look at this molecule and give its reported solubility kinetic. `CCCc1ccc(C(=O)/C=C/N(C)C)cc1`
26.9

Dear colleague, I am looking for the recorded solubility kinetic of the following molecule: Cc1cc(C)cc(NC(=O)C2CCCN2C(=O)NC2CCCCC2)c1 (stereo not given)
0.7

Which value of solubility kinetic has been reported for `CC(=O)c1c(C)nc2ccc(C)cc2c1-c1ccccc1` in the records?
22.2

Any idea what its solubility kinetic is? The molecule is `Cc1ccc(S(=O)(=O)n2c(C)nc3ccccc32)cc1`
2.2

Would you kindly share the measured solubility kinetic for COC(=O)C1=C(C)NC(=O)NC1c1c(O)ccc2ccccc12 (stereo not given) ?
15.2

###

The following molecules are shown together with reported log10 of solubility kinetic values.
conditions: buffer; pH 7.4; 200.0 µM
In our notation, the value equals log10 of solubility kinetic in µg/mL.

Here is how some molecules turned out for log10 of solubility kinetic.
Cc1c(Cl)cccc1NC(=O)NCc1ccc(C)n1C: 0.72
O=C(Nc1nccs1)c1cccc(NC(=O)C(F)(F)F)c1: 1.59
CC1CC(=O)N(c2ccc(C(C)C)cc2)C(=O)C1: 1.54
O=S(=O)(c1c(F)cccc1F)N1CCCC2CCCCC21 (centres undefined): 1.12
CCOc1ccccc1NC(=O)CN1CCC(NC(=O)Nc2ccccc2)CC1: 1.27
COCc1cc(C)nc(Nc2ccccc2OC)c1C#N: -0.52
COc1ccc(CNC(=O)COC(=O)Cc2ccc(Br)cc2)cc1: 0.76
Cc1nc(SCC(=O)Nc2ccccc2Cl)c2c(C)c(C)sc2n1: 0.59
O=C(CNS(=O)(=O)c1ccc(Cl)c(C(F)(F)F)c1)NC1CCCCC1: 1.10
CCOc1ccc2nc(SCC(=O)NCc3ccccc3)[nH]c2c1: 1.65

Request the reported log10 of solubility kinetic associated with `C=CCOc1ccccc1CN1CCCN(C)CC1`
1.44

# query: log10 of solubility kinetic of entry `COc1ccc2c(CCNC(N)=S)c[nH]c2c1`
1.25

Which log10 of solubility kinetic is listed for `O=c1c2ccccc2[nH]c(=S)n1-c1cccnc1` ?
0.88

So what's the measured log10 of solubility kinetic for this one? `Cl.NCCC(=O)N1c2ccccc2Sc2ccc(Cl)cc21`
1.53

Item `CCCc1nc2sc3c(c2c(=O)[nH]1)CCCC3` has what recorded log10 of solubility kinetic?
0.11

Please give the measured log10 of solubility kinetic for this molecule: `Cc1ccc(CN(CCO)CCO)cc1`
1.47

Look up log10 of solubility kinetic for this molecule: `O=C(COc1ncnc2cc(Cl)ccc12)c1ccccc1`
0.51

Looking for the measured log10 of solubility kinetic of OC(C#CCCN1CCCCC1)(c1ccccc1)C1CCCCC1 (centres undefined) , can you help?
1.40

What does the record list as log10 of solubility kinetic for `COc1ccc(NC(=S)Nc2ccc(C)c(Cl)c2)cc1OC` ?
1.56

So what does the record say about log10 of solubility kinetic for Cc1ccc(NC(=O)C2CCC(C(C)(C)C)CC2)cc1S(=O)(=O)N1CCOCC1 (centres undefined) ?
0.54

Any idea what its log10 of solubility kinetic is? The molecule is COc1ccc(C(=O)C(C)OC(=O)c2sc(C)nc2C)cc1 (centres undefined)
1.55

Record request: log10 of solubility kinetic value, item O=C(NCc1cccs1)C1CCCN(C(=O)Nc2ccccc2)C1 (centres undefined)
1.34

###

Here the recorded solubility kinetic is given for each entry.
conditions: buffer; pH 7.4; 200.0 µM
# number only, unit µg/mL dropped from output

Consider the following illustrative entries.
Cc1cccc(N2CCN(Cc3ccc4c(c3)OCO4)CC2)c1C: 4
O=C(CNC(=O)c1ccco1)Nc1ccc(F)cc1: 37

Bench note: what solubility kinetic did `O=C(c1cc2cc(Cl)ccc2o1)N1CCCC1` show?
29.6

###

Listing: solubility kinetic of selected compounds
conditions: buffer; pH 7.4; 200.0 µM

CC1N(C(=O)N(C)C)CCN1S(=O)(=O)c1ccccc1 (stereo unspecified): > 44.6 µg/mL

Attention now turns to another entry.
Form field: reported solubility kinetic of `CCOc1ccc(NC(=O)COC(=O)c2ccc3c(c2)OCO3)cc1`
4 µg/mL

###

conditions: buffer; pH 7.4; 200.0 µM
Everything with solubility kinetic lower than 9 µg/mL is criterion not met; everything else, including exactly 9 µg/mL, is criterion met.

Reference set (4 entries):
COC(=O)c1c(C)nc2nonc2c1N: criterion met
COc1ccc(C=O)cc1Cn1ccnc1.Cl: criterion met
Cc1cccc(C(=O)OCC(=O)N(C)c2ccccc2)c1C: criterion met
O=C(COC(=O)CNC(=O)c1ccc(F)cc1)NC1CCCc2ccccc21 (stereo not given): criterion met

Quick check, solubility kinetic >= 9 µg/mL? Cc1ccsc1C(=O)OC(C)C(=O)Nc1ccc(Cl)cn1 (stereo not given)
criterion met

###

settings: buffer; pH 7.4; 200.0 µM
experimental-endpoint: log10 of solubility kinetic (log10 of the value in µg/mL)
// units: µg/mL (pre-log); metric: solubility kinetic; scale: log10

Consider the reported log10 of solubility kinetic for these molecules:
CSc1nc2ccc(NC(=O)c3ccccn3)cc2s1: -0.30
COc1ccc(-n2c(C)cc(C(=O)CN3CCC(C)CC3)c2C)cc1: 1.67
COc1ccc(CCn2c([S-])nc3ccccc3c2=O)cc1.[Na+]: 0.18
Cc1ccc(COC(=O)c2ccc3ccccc3n2)cc1: 0.88
O=C(COc1ccc(Cl)cc1)NCCCNC(=O)c1ccccn1: 1.70
CN1C(=O)/C(=C/C=C2\SCCN2C)N(C)C1=S: 0.90
O=C(COC(=O)c1ccccc1O)NCCCc1ccccc1: 0.70
O=C(COC(=O)c1cccc([N+](=O)[O-])c1)Nc1ncc(Br)s1: 0.54

Bench note: what log10 of solubility kinetic did `O=C(Nc1cccc(Cl)c1)N1CCc2ccccc2C1` show?
0.28

I am curious: what log10 of solubility kinetic value has been reported for `Cc1nc([N+](=O)[O-])c(C(=O)OCc2ccc(C#N)cc2)n1C` ?
1.25

# input molecule: `COc1ccc(CNC(=S)Nc2ccccc2Cl)cc1` ; wanted: its log10 of solubility kinetic
1.08

Consider the molecule shown here: `COc1ccc(OC)c(NC(=O)COC(=O)CC2CCCCC2)c1` What is its recorded log10 of solubility kinetic?
1.28

// lookup log10 of solubility kinetic for `COc1ccc(C(C)=O)cc1COC(=O)C1CCN(C(=O)c2ccc(Cl)cc2)CC1`
1.53

Look up log10 of solubility kinetic for this molecule: `O=C(O)Cc1csc(-c2ccc(F)cc2)n1`
1.51

Looking for the measured log10 of solubility kinetic of `COc1ccccc1CCC(=O)N(C)CC(=O)Nc1ccc(F)cc1` , can you help?
1.31

Endpoint output: log10 of solubility kinetic of `Cc1ccc(/C=C/C(=O)OCC(=O)c2ccc3c(c2)NC(=O)CO3)o1` . Value?
1.25

So what's the measured log10 of solubility kinetic for this one? `COCCNc1nc2c(c(=O)n(Cc3ccccc3F)c(=O)n2C)n1C`
0.93

Consider the molecule `CC1(C)Cc2cccc(C(=O)NCc3ccco3)c2O1` and give its measured log10 of solubility kinetic.
1.52

I would be grateful if you could share the reported log10 of solubility kinetic for `O=C(Nc1ccncc1)c1ccc2ncsc2c1` .
1.55

# get_value(readout='log10 of solubility kinetic', item= Cc1nc(NCc2cccnc2)c2c3c(sc2n1)CC(C)CC3 (centres undefined) )
0.40

Look up log10 of solubility kinetic for this molecule: `O=C(COC(=O)c1ccccc1Br)NC1CCCCCCC1`
1.40

log10 of solubility kinetic lookup needed for `Cn1c(=O)[nH]c(=O)c2cc(C(=O)c3cc(F)ccc3O)cnc21` , thanks.
0.90

# log10 of solubility kinetic lookup, item `CC1(C)C(=O)N(c2ccccc2F)C(=O)c2ccccc21`
1.57

Which log10 of solubility kinetic is listed for `O=c1[nH]c(O)c(C=NCCc2ccccc2)c(=O)[nH]1` ?
0.56

Give its log10 of solubility kinetic value. Item: `COC(=O)c1ccc(COc2ccc(C)cc2[N+](=O)[O-])o1`
0.52
